target: D(2) dopamine receptor (Homo sapiens); test: Binding affinity to human dopamine D2 receptor
Sequence (P14416 whole entry): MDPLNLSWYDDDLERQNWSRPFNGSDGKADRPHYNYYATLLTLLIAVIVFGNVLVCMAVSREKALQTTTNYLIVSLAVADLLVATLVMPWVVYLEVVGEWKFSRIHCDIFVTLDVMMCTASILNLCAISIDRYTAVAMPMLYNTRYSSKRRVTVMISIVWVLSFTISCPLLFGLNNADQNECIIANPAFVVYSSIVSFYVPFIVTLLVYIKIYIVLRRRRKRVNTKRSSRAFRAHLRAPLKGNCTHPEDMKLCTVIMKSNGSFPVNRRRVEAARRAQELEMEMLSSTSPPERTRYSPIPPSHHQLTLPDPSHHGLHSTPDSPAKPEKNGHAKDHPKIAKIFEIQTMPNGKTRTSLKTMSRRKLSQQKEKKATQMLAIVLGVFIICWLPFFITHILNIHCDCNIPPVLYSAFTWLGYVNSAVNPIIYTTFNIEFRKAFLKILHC
Observation Type: Ki (nM)
Please reply with the bare figure in nM and do not write the unit itself.

Quick one: Ki for CCCN1CCC(c2cccc(O)c2)C1 (stereo unspecified) ? 68

---

Target: 5-hydroxytryptamine receptor 1A (Homo sapiens, UniProt P08908)
Sequence (P08908 whole entry): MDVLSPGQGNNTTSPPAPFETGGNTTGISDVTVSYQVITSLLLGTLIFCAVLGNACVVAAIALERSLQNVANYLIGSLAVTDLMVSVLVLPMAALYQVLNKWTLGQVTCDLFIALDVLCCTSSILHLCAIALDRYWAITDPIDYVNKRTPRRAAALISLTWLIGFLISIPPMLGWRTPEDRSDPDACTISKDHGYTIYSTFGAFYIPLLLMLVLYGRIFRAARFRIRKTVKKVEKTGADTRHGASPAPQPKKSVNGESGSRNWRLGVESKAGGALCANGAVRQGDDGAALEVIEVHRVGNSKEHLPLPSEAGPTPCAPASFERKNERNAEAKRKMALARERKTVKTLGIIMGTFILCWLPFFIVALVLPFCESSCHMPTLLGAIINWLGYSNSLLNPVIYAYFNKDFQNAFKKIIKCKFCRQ
pKi: −log10 of the molar value.
pKi below 7 gives rule not met; pKi at or above it gives rule met.

Hi team, for CCCCCCN1CCC(c2cccc(O)c2)C1 (centres undefined) , is the recorded pKi at or above 7? rule not met

Hi team, for CCCCCCCCCN1CCC(c2cccc(O)c2)C1 (single isomer, unassigned; (-)) , is the recorded pKi at or above 7? rule met

Hi team, for CCCCCCCN1CCC(c2cccc(O)c2)C1 (centres undefined) , is the recorded pKi at or above 7? rule met

Hi team, for CCCCCN1CCC(c2cccc(O)c2)C1 (centres undefined) , is the recorded pKi at or above 7? rule not met

Hi team, for CCCCCCCCCN1CCC(c2cccc(O)c2)C1 (racemic) , is the recorded pKi at or above 7? rule met

Hi team, for CCCCN1CCC(c2cccc(O)c2)C1 (centres undefined) , is the recorded pKi at or above 7? rule not met

Hi team, for CCCCCCCCN1CCC(c2cccc(O)c2)C1 (centres undefined) , is the recorded pKi at or above 7? rule met

Hi team, for CCCCCCCCCCN1CCC(c2cccc(O)c2)C1 (centres undefined) , is the recorded pKi at or above 7? rule met
